Give measured EC50 for each item. Keep answers brief.
- method_summary: Activation of caspase 3 in human MDA-MB-231 cells measured after 48 hrs by Plate reader method
Give bare numbers, in µM.

Examples from the recorded data:
[[record]]
structure_notation = "C#CCOC(=O)[C@]1(C)CC[C@]2(C)CC[C@]3(C)C4=CC=C5C(=CC(=O)C(OC(=O)N(CC)CC)=C5C)[C@]4(C)CC[C@@]3(C)[C@@H]2C1"
assay_value = 20.4

[[record]]
structure_notation = "C#CCOC(=O)[C@]1(C)CC[C@]2(C)CC[C@]3(C)C4=CC=C5C(=CC(=O)C(OC(=O)N6c7ccccc7Sc7ccccc76)=C5C)[C@]4(C)CC[C@@]3(C)[C@@H]2C1"
assay_value = 18.5

[[record]]
structure_notation = "C#CCOC(=O)[C@]1(C)CC[C@]2(C)CC[C@]3(C)C4=CC=C5C(=CC(=O)C(OC(=O)N(C)CC)=C5C)[C@]4(C)CC[C@@]3(C)[C@@H]2C1"
assay_value = 18.7

[[record]]
structure_notation = "C#CCOC(=O)[C@]1(C)CC[C@]2(C)CC[C@]3(C)C4=CC=C5C(=CC(=O)C(OC(=O)N6CCN(c7ccc(Cl)cc7)CC6)=C5C)[C@]4(C)CC[C@@]3(C)[C@@H]2C1"
assay_value = 20.1

[[record]]
structure_notation = "C#CCOC(=O)[C@]1(C)CC[C@]2(C)CC[C@]3(C)C4=CC=C5C(=CC(=O)C(OC(=O)N6CCCCC6)=C5C)[C@]4(C)CC[C@@]3(C)[C@@H]2C1"
assay_value = 24.1


Turning now to a further record.
Inquiry: Which EC50 value is on record for `C#CCOC(=O)[C@]1(C)CC[C@]2(C)CC[C@]3(C)C4=CC=C5C(=CC(=O)C(OC(=O)N6CCN(c7ccccc7)CC6)=C5C)[C@]4(C)CC[C@@]3(C)[C@@H]2C1` ?
Reply text: 19.3
